# Assay Summary: soluble on expression in E. coli; label from the status in PepcDB or PDB records
Reported Endpoint: soluble on expression in E. coli

Answered examples (7):
I have this sequence here, GSMAGEDVGAPPDHLWVHQEGIYRDEYQRTWVAVVEEETSFLRARVQQIQVPLGDAARPSHLLTSQLPLMWQLYPEERYMDNNSRLWQIQHHLMVRGVQELLLKLLPDDRSPGIHRD , and I need its recorded soluble on expression in E. coli. soluble

I have this sequence here, GSHMLKGQEFAPSHQQVYAPLRADGDKPRAHLTVVRQTPTQHFKNQFPALHWEHELGLAFTKNRMNYTNKFLLIPESGDYFIYSQVTFRGMTSESSEIRQAGRPNKPDSITVVITKVTDSYPEPTQLLMGTKSVSEVGSNWFQPIYLGAMFSLQEGDKLMVNVSDISLVDYTKEDKTFFGAFLL , and I need its recorded soluble on expression in E. coli. soluble

I have this sequence here, MSLETRARNSTRPASGLIDWEQARQAALRLSQWEQAPVDNRAFRREQYARMVALSEPLIADYLGVRLPEPVSRIFVFDRREWLEANIVSFSQLFRPIEEMYEKNGGGRGALGVLMNDVSSKLLGVQIGGLLGYLAQRVLGQYDLSLLSAEATGGSLYFVEPNIARVQQQLGLSDEDFRLWITLHEMTHAFEFEAYPWVRTYFRELLEQNFALVSGQMLSSGNSLVDMLMRLLQGIGSGQHWIETVLTPEQRAVFDRIQALMSLIEGYGNHVMNAVGRRLLPSFNQIEQQIAQRQRQRTMLDQMVFRLTGLDLKLAQYQQGEAFVNAVVAARGIQFASRVWERPENLPSMDEIRNPGQWIVRMDREGHHHHHH , and I need its recorded soluble on expression in E. coli. soluble

I have this sequence here, MGSDKIHHHHHHMNQTTLNTIRNYVMQASAQWISDFNQGNVQTCINRYLPSATMQVHPFGKFTSIEAIADFWLEFAKSNPSDLVYRNIEIKVLNDRQAVLSANWRMNIASGFISKELWTLAEDGQWYLEEDDFTVLAQHTKPVDDKRTALVLVDLQNDYFSGGRFELDNTDSAAKQASQLLAHFRQKELPVIHMQHLFEETNAAFFSANTVGAEIESSVKPTANEPVIIKHQIDSFIETTLEQTLVELGIDNLVIVGAMAQACVQTLCRSAVNKGYKCQVISDAIAAPKLEYQQHSFTGGQLVAANLLSLSFGGADITDTKGWLQENK , and I need its recorded soluble on expression in E. coli. not soluble

I have this sequence here, MKHHHHHPMVPSYDSFDSEDYPAALPNHKPKGTFKDYVRDRADLNKDKPVIPAAALAGYTGSGPIQLWQFLLELLTDKSSQSFISWTGDGWEFKLSDPDEVARRWGKRKNKPKMNYEKLSRGLRYYYDKNIIHKTAGKRYVYRFVSDLQSLLGYTPEELHAMLDVKPDADE , and I need its recorded soluble on expression in E. coli. soluble

I have this sequence here, MLSPDNVFIAIKPVDMRRGIDSLTQYIQDELRSTWHEGAAFVFVNKARSRIKVLRWDKHGVWLCTRRLHKGSFRWPRANDAAWHLTPDEFNWLIAGVDWQQVKGHDLTKWVWQNEPELRPENTQNTLLTQ , and I need its recorded soluble on expression in E. coli. not soluble

I have this sequence here, MSLYNKVLIIDDHPVLRFAVRVLMEKEGFEVIGETDNGIDGLKIAREKIPNLVVLDIGIPKLDGLEVIARLQSLGLPLRVLVLTGQPPSLFARRCLNSGAAGFVCKHENLHEVINAAKAVMAGYTYFPSTTLSEMRMGDNAKSDSTLISVLSNRELTVLQLLAQGMSNKDIADSMFLSNKTVSTYKTRLLQKLNATSLVELIDLAKRNNLAEGHHHHHH , and I need its recorded soluble on expression in E. coli. not soluble

Field: next sequence
I have this sequence here, MRALALDVGLKRIGVALCIDKKIALPLDAVLRKNRNQAANEIKNLLKIHEISLLIVGIPKGGSSEEEMTRRIKHFVSLLEFDKEICFVDESGTSKEALGYGVANTRKKDGKLDSLSAFIMIKDYFALLEHHHHHH , and I need its recorded soluble on expression in E. coli. not soluble

Data provenance: the DeepSol protein solubility set
